# Protocol Description: Half life in rat at 10 mg/kg, iv
# Assay type: ADME, organism-based
# Design: dose 10 mg/kg, route intravenous
# Condition Parameters: in vivo
Measurement Label: half-life (min)

[
  {
    "Structure": "Cc1cc(N2CCC[C@@H]2C(=O)NCCc2ccc3c(c2)OCO3)nc(-n2ccnc2)n1",
    "Unit Tag": "min",
    "Measurement": 42
  }
]

====

# Protocol Description: Half life in dog at 3 mg/kg, iv
# Type: ADME, organism-based, Canis lupus familiaris
# Set-up: dose 3 mg/kg, route intravenous
# Condition Parameters: in vivo
Measurement Label: half-life (min)

[
  {
    "Structure": "Cc1cc(N2CCC[C@@H]2C(=O)NCCc2ccc3c(c2)OCO3)nc(-n2ccnc2)n1",
    "Measurement Label": "half-life",
    "Unit Tag": "min",
    "Measurement": 150
  }
]
